Target: T1, 人GPC-3-His(北京义翘神州生物) (human, UniProt P51654 25-559)
T1 construct: Bought His-tagged protein, coupled to Ni-NTA sensors in the BLI assay; not shown: His tag
T1 sequence (P51654 25-559 limits assumed): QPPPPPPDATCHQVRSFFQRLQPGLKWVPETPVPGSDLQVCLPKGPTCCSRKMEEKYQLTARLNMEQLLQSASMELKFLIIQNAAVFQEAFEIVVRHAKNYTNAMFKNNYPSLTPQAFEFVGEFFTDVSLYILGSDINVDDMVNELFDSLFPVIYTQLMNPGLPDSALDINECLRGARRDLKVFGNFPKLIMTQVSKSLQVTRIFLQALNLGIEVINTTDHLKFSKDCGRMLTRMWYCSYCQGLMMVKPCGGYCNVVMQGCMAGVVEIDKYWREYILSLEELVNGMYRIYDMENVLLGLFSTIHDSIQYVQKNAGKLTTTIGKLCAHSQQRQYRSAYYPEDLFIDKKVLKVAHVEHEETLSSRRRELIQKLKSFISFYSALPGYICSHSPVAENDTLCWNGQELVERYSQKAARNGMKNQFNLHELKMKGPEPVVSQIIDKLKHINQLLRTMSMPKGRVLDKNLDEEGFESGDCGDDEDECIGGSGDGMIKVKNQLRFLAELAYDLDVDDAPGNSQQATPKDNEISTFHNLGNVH
Experiment: affinity and kinetics of Table 2 (table not shown; method not named here, taken as BLI of Example 3.2)
Recorded Kd for the following binders

Some binders with recorded Kd:
BINDER	Kd
人源化抗体AB13E1 (antibody, V domains shown, Humanized from GPC3#4 by CDR grafting) VH: QVQLVQSGAEVKKPGASVKVSCKASGYTFTDYEMHWVRQAPGQGLEWMGIIDPQTGNTSYAQKFQGRVTMTRDTSTSTVYMELSSLRSEDTAVYYCTRFYSLTYWGQGTLVTVSS VL: DVVMTQSPLSLPVTLGQPASISCRSSQSIVHSNGNTYLNWFQQRPGQSPRRLIYKVSNRDSGVPDRFSGSGSGTDFTLKISRVEAEDVGVYYCFQGSHFPYAFGGGTKVEIK	< 0.01 nM
人源化抗体AB13E4 (antibody, V domains shown, Humanized from GPC3#4 by resurfacing; detected with goat anti-human IgG) VH: QVQLVQSGAEVVKPGASVKLSCKASGYTFTDYEMHWVKQTPGQGLEWIGAIDPQTGNTAFNQKFKGRATLTRDKSSSTAYMEVSSLRSEGTAVYYCTRFYSLTYWGQGTLVTVSS VL: DVLMTQSPLSLPVTLGQPASISCRSSQSIVHSNGNTYLQWYLQKPGQSPKLLIYKVSNRFSGVPDRFSGSGSGTYFTLKISRVEAEDVGVYYCFQGSHFPYAFGGGTKLEIK	< 0.01 nM

Please find the next binder below.
## Input I have this binder here, 人源化抗体AB13E3 (antibody, V domains shown, Humanized from GPC3#4 by CDR grafting; detected with goat anti-human IgG) VH: QVQLVQSGAEVKKPGASVKVSCKASGYTFTDYEMHWVKQAPGQGLEWIGAIDPQTGNTAFNQKFKGRVTLTRDKSSSTVYMELSSLRSEDTAVYYCTRFYSLTYWGQGTLVTVSS VL: DVLMTQSPLSLPVTLGQPASISCRSSQSIVHSNGNTYLQWYLQRPGQSPKLLIYKVSNRFSGVPDRFSGSGSGTYFTLKISRVEAEDVGVYYCFQGSHFPYAFGGGTKVEIK , and I need its recorded Kd.
## Output < 0.01 nM
